procedure-summary: Peg3 promoter luciferase inhibitors, potency, dose response, cell-based, HeLa, CREF/GAPDH counter-screen panel (AID 624167)
condition-notes: CREF/GAPDH counter-screens; GAPDH; mean of runs
The source made the active and inactive calls.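 The calls were made as follows: active = mean IC50 for reducing PEG3 promoter reporter signal at or below a set limit, with IC50 above the limit in both counter screens; inactive = the rest, including counter screen hits.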
Select the correct class. Options are class 1 = active, class 0 = inactive and nothing else.

-- ask Call for entry C=CCc1cccc(/C=N/NC(=O)C(C)Nc2cccc(C)c2)c1O (stereo unspecified) :
-- reply class 0

-- ask Could you kindly confirm the outcome this assay logged for "CCCCCCCn1c(=N)n(CC(=O)c2ccco2)c2ccccc21" ?
-- reply class 0

-- ask Name the outcome recorded for "O=C(CNc1ccccc1)N/N=C/c1c(O)ccc2ccccc12" in the assay.
-- reply class 0

-- ask Given CCCC(=O)NC(c1ccc(Cl)cc1)c1ccc2cccnc2c1O (stereo unspecified) , state the outcome it received in this test.
-- reply class 0

-- ask Identify the outcome logged in this assay for the compound shown: "COc1ccc(Nc2ncnc3ccc(Br)cc23)c(OC)c1"
-- reply class 1

-- ask Called result for "C=CCn1c(C)cc(C(=O)COc2ccc(C)nc2[N+](=O)[O-])c1C"
-- reply class 1

-- ask Could you check what this test reported for Cc1ccc(C(C[N+](=O)[O-])Sc2ccc(N)cc2)cc1 (stereo unspecified) ?
-- reply class 1

-- ask Give the logged outcome of this assay for the following compound: "COc1cc2nc(CN3CC=C(c4ccccc4)CC3)[nH]c(=O)c2cc1OC"
-- reply class 0

-- ask Tell me the recorded outcome of this test for "C/C(=N\NC(=O)c1c(C)nc2ccccn12)c1ccc(O)cc1O" .
-- reply class 0

-- ask Short answer needed: outcome of this test for COC(COC(N)=O)C1=C(N2CC2)C(=O)C(C)=C(N2CC2)C1=O (stereo unspecified) ?
-- reply class 1

-- ask What did the test return for CCCC(=O)NC(c1ccc(N(C)C)cc1)c1ccc2cccnc2c1O (stereo unspecified) ?
-- reply class 0

====

Please provide measured pIC50 for the entries that follow.
Tested on: PEG-3
procedure-summary: Peg3 promoter luciferase inhibitors, potency, dose response, cell-based, HeLa, CREF/GAPDH counter-screen panel (AID 624167)
condition-notes: HeLa PEG-Prom luciferase reporter, overnight, CREF/GAPDH counter-screens, run 1, dose range 1, individual replicate IC50 per panel
// field semantics: pIC50 = negative decimal log of concentration (mol/L)

-- ask Quick one: give measured pIC50 for "COc1ccc(-c2cc(-c3ccc(F)cc3)nc(N3CCN(C)CC3)n2)cc1"
-- reply 4.67

-- ask Respond only with pIC50 recorded for CCCC(=O)NC(c1ccc(OC)cc1)c1ccc2cccnc2c1O (stereo not given)
-- reply 5.56

-- ask Hello, please tell me recorded pIC50 for this one: "COCCn1c(C)cc(C(=O)CSc2nnc3ccccn23)c1C"
-- reply 5.08

-- ask Output pIC50 of "O=C(Cn1ncc(Cl)c(Cl)c1=O)N1CCN(Cc2ccccc2)CC1"
-- reply 4.71

-- ask State, in one line, measured pIC50 of "O=C(/C=C\Nc1ccc2c(c1)OCO2)c1ccccn1"
-- reply 5.94

-- ask Give pIC50 for the following compound: "CCOc1ccc2[nH]c3c(NCCc4ccc(OC)c(OC)c4)ncnc3c2c1"
-- reply 4.33

-- ask Provide pIC50 value for the following compound: "CCN(CC)CCOc1ccc(/C(=C(/Cl)c2ccccc2)c2ccccc2)cc1"
-- reply 4.65

-- ask Determine from records and report pIC50 for "CCn1cc(C(=O)NCCC(C)C)c(=O)c2cc(F)c(N3CCN(C(=O)c4ccco4)CC3)cc21"
-- reply 4.42

-- ask Return pIC50 for the following compound: O=S(=O)(NC1CC(NS(=O)(=O)OCC(Cl)(Cl)Cl)C2CCCCC12)OCC(Cl)(Cl)Cl (stereo not given)
-- reply 4.97

-- ask Fill in reported pIC50 for this entry: "CCN1CCN(c2ccc(S(=O)(=O)N3CCOCC3)cc2NC(=O)/C=C/c2ccc([N+](=O)[O-])cc2)CC1"
-- reply 4.72
